The origin of these recorded values is patent US20230295087A1.

# assayedSystem: human RORgT (Homo sapiens, UniProt P51449)
# Sequence (P51449 267-516): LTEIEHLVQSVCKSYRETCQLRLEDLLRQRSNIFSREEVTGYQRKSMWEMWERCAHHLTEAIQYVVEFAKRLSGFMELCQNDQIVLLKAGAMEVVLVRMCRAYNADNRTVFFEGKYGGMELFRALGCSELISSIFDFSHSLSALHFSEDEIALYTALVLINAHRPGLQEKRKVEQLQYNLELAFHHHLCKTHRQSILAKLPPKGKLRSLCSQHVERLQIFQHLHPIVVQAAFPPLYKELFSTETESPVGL
# assaySummary: RORgT Gal4 Luciferase Reporter Gene Assay
# runConditions: engineered Jurkat cells overexpressing RORgT (LBD or full length) fused with Gal4 Luc reporter; 18 hours at 37° C.; luminescence
# Description: RORgT Gal4 Luciferase Reporter Gene Assay […] 100 nL of compound at varying concentrations in 3-fold serial dilution, with final concentrations ranging from 40 µM to 0.67 nM, were added to the cells using Labcyte Echo 550. […] Subsequently, the plates were read on the Envision (PerkinElmer). The inhibition of constitutive activity of RORgT achieved by graded concentrations of compound was calculated as a percentage of the luminescence signal window reduction over a control compound.
Reported pEC50 values follow for various compounds
Scale for pEC50: -log10 of concentration given in mol/L; no unit attached.

As a guide, the following entries are already answered.
compound | pEC50
Cc1ccccc1Cc1ccc2c(c1)CC[C@H]1N(C(=O)CC3CCS(=O)(=O)C3)CC[C@@]21S(=O)(=O)c1ccc(F)cc1 (stereo partly drawn) | 8.36
O=C(CN1CCS(=O)(=O)CC1)N1CC[C@@]2(S(=O)(=O)c3ccc(F)cc3)c3ccc(OCc4c(Cl)cccc4Cl)cc3CC[C@@H]12 | 7.85
O=C(N1CCS(=O)(=O)CC1)N1CC[C@@]2(S(=O)(=O)c3ccccc3)c3ccc(OCc4c(Cl)cccc4Cl)cc3CC[C@@H]12 | 7.82
O=C(N1CC[C@@]2(S(=O)(=O)c3ccc(F)cc3)c3ccc(OCc4ccc(F)cc4Cl)cc3CC[C@@H]12)C1(O)CCS(=O)(=O)CC1 | 8.25
Cc1ccccc1COc1ccc2c(c1)CC[C@H]1N(C(=O)C3CCS(=O)(=O)CC3)CC[C@@]21S(=O)(=O)c1ccccc1 | 7.47

Bench note: what pEC50 did O=C(N1CC[C@@]2(S(=O)(=O)c3ccccc3)c3ccc(OCc4c(Cl)cccc4Cl)cc3CC[C@@H]12)C1(O)CCS(=O)(=O)CC1 show?
8.10

---

Reported pEC50 values follow for various compounds
# assayedSystem: human RORgT (Homo sapiens)
# assaySummary: RORgT Gal4 Luciferase Reporter Gene Assay
# runConditions: engineered Jurkat cells overexpressing RORgT (LBD or full length) fused with Gal4 Luc reporter; 18 hours at 37° C.; luminescence
Scale for pEC50: -log10 of concentration given in mol/L; no unit attached.

compound | pEC50
O=C(O)[C@H]1CC[C@H](C(=O)N2CC[C@@]3(S(=O)(=O)c4ccc(F)cc4)c4ccc(Oc5cccnc5F)cc4CC[C@@H]23)CC1 [Example 116] | 7.29
CN1C(=O)CC[C@H]1C(=O)N1CC[C@@]2(S(=O)(=O)c3ccccc3)c3ccc(OCc4c(F)cccc4Cl)cc3CC[C@@H]12 [Example 150] | 8.21
O=C(NC1CCOCC1)N1CC[C@@]2(S(=O)(=O)c3ccccc3)c3ccc(OCc4c(Cl)cccc4Cl)cc3CC[C@@H]12 [Example 89] | 6.94
O=C(C1CCS(=O)(=O)N1)N1CC[C@@]2(S(=O)(=O)c3ccccc3)c3ccc(OCc4c(Cl)cccc4Cl)cc3CC[C@@H]12 (stereo partly shown) [Example 63] | 7.21
C[C@]1(C(=O)N2CC[C@@]3(S(=O)(=O)c4ccc(F)cc4)c4ccc(OCc5c(F)cccc5Cl)cc4CC[C@@H]23)CC[C@H](C(=O)O)CC1 [Example 9] | 7.77

Bench note: what pEC50 did CS(=O)(=O)CC(=O)N1CC[C@@]2(S(=O)(=O)c3ccc(F)cc3)c3ccc(OCc4c(Cl)cccc4Cl)cc3CC[C@@H]12 [Example 191] show?
6.87

Then CC(=O)N1CCC(C(=O)N2CC[C@@]3(S(=O)(=O)c4ccc(F)cc4)c4ccc(OCc5c(Cl)cccc5Cl)cc4CC[C@@H]23)CC1 [Example 189] ?
7.39
